- assayed_system: TSPO (Homo sapiens)
- method_summary: Competition binding with [3H]PK11195 in human brain (method of J Nucl Med 2011;52:24-32)
- Set-up: Ki MAB; Vinpocetine Ki, MAB
- condition_label: mixed affinity binders, single value, human brain; read-out: Ki MAB
- Source text: Thus, for example, the binding affinity of the compound may be determined in tissue derived from a HAB and in tissue derived from a LAB. An appropriate method may comprise the following steps: • obtain samples from human volunteers of tissue which contains TSPO (for example brain (for example for archive samples) or platelets (for example from blood)). […]
Known pKi of a selection of molecules
FYI, pKi means -log10 of a concentration in mol per litre.

In the examples that follow, each entry is paired with its recorded pKi.
CCN(CC)C(=O)Cc1c(-c2ccc(OCCCF)cc2)nc2ccc(Cl)cn12    7.52
CCN(Cc1ccccc1)C(=O)Cn1c(=O)n(C)c2cnc(-c3ccccc3)nc21    7.98

Let us move to another entry and its pKi.
Name the recorded pKi for COc1ccc(OC)c(CN(C(C)=O)c2cc(F)ccc2Oc2ccccc2)c1 .
8.32
